measuredTarget: T1, human G-CSF receptor (human, UniProt Q99062 25-836)
T1 sequence (looked up): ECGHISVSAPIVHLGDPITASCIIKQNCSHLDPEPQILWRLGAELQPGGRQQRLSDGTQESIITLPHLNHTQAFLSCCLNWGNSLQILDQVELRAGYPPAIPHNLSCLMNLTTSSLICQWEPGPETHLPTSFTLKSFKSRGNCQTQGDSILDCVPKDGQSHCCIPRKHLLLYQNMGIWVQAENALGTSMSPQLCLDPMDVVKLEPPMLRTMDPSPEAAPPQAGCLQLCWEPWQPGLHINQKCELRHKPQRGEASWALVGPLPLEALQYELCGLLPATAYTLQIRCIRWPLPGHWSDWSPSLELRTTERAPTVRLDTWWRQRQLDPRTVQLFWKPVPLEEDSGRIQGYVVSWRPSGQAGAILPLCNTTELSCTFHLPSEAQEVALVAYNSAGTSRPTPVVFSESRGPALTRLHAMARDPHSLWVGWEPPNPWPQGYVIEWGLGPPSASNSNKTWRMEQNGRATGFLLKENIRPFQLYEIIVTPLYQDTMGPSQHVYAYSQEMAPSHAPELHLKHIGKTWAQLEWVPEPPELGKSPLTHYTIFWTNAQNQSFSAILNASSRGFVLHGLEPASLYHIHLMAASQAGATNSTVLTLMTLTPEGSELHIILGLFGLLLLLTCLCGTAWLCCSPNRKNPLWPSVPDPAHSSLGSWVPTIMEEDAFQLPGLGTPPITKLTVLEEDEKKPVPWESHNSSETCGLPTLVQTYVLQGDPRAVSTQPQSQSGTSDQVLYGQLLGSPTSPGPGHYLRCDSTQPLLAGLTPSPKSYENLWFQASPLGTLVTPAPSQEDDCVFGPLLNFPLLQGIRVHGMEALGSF
methodNotes: cell-based or functional assay
propertyMeasured: EC50 (% of hG-CSF) conjugated to SPA-PEG 5000

Illustrative cases are given below, each with its answer.
{"columns": ["binder", "val"],
 "data": [
  ["G-CSF variant K16/34/40R Q120K S142K conjugated to SPA-PEG 5000 (ligand, SPA-PEG 5000 conjugated to the available PEGylation sites) TPLGPASSLPQSFLLRCLEQVRKIQGDGAALQERLCATYRLCHPEELVLLGHSLGIPWAPLSSCPSQALQLAGCLSQLHSGLFLYQGLLQALEGISPELGPTLDTLQLDVADFATTIWQKMEELGMAPALQPTQGAMPAFAKAFQRRAGGVLVASHLQSFLEVSYRVLRHLAQP", "2 % of hG-CSF"],
  ["G-CSF variant K16/34/40R S142K conjugated to SPA-PEG 5000 (ligand, SPA-PEG 5000 conjugated to the available PEGylation sites) TPLGPASSLPQSFLLRCLEQVRKIQGDGAALQERLCATYRLCHPEELVLLGHSLGIPWAPLSSCPSQALQLAGCLSQLHSGLFLYQGLLQALEGISPELGPTLDTLQLDVADFATTIWQQMEELGMAPALQPTQGAMPAFAKAFQRRAGGVLVASHLQSFLEVSYRVLRHLAQP", "7 % of hG-CSF"]
]}

IN: So what's the measured EC50 (% of hG-CSF) conjugated to SPA-PEG 5000 for this one? G-CSF variant K16/34/40R Q70K Q120K S142K conjugated to SPA-PEG 5000 (ligand, SPA-PEG 5000 conjugated to the available PEGylation sites) TPLGPASSLPQSFLLRCLEQVRKIQGDGAALQERLCATYRLCHPEELVLLGHSLGIPWAPLSSCPSQALKLAGCLSQLHSGLFLYQGLLQALEGISPELGPTLDTLQLDVADFATTIWQKMEELGMAPALQPTQGAMPAFAKAFQRRAGGVLVASHLQSFLEVSYRVLRHLAQP
OUT: 1 % of hG-CSF
